Test: Pharmacokinetic study after oral administration
Assay type: in vivo, Wistar rats
Conditions: male, Wistar, rat, plasma, 50 mg/kg
quantityMeasured: Tmax (h)
Use h as the unit, but write only the number.

Find the recorded Tmax belonging to `C[C@@H]1O[C@@H](O[C@H]2[C@H](Oc3cc(O)c4c(c3)O[C@H](c3ccc(O)cc3)CC4=O)O[C@H](CO)[C@@H](O)[C@@H]2O)[C@H](O)[C@H](O)[C@H]1O` and report it.
4.1
